- System: cancer cell lines classified IM, MSL, M
- experiment description: PRISM screen compound sensitivity correlated with IM, MSL and M subtype of cell lines (101 gene signature)
- Type: cell-based
- condition label: correlation of PRISM compound sensitivity with MSL subtype correlation; test cell set
observed property: MSL Corr test

- molecule: "C=CC(=O)Nc1cccc(Nc2nc(Nc3ccc(Oc4ccnc(C(=O)NC)c4)cc3)ncc2F)c1"
  MSL Corr test: 0.02463
- molecule: "C[C@@H](Oc1cc(NS(=O)(=O)N2CCC2)nc(SCc2cccc(F)c2F)n1)[C@@H](O)CO"
  MSL Corr test: 0.02875
- molecule: "C[C@]12N[C@H](Cc3ccccc31)c1ccccc12 [dizocilpine-(−)]"
  MSL Corr test: "−0.09183"
- molecule: "Cc1cc(C)c(N(Cc2ccccc2)S(=O)(=O)c2ccc(OCCNC(=O)c3cc4ccccc4o3)cc2)c(C(=O)NO)c1"
  MSL Corr test: "−0.04718"
- molecule: "CNC(=O)CN(CCN(CCN(CC(=O)[O-])CC(=O)NC)CC(=O)[O-])CC(=O)[O-].[Gd+3] [gadodiamide]"
  MSL Corr test: "−0.03759"
- molecule: "O=C(O)CCC/C=C\\C[C@@H]1CO[C@H](C(F)(F)F)O[C@@H]1c1ccccc1O"
  MSL Corr test: 0.1418
- molecule: "O=C(O)Cc1cccnc1C(=O)O"
  MSL Corr test: 0.003236

Proceed to the following item.
What does the data say about its MSL Corr test? Entry: CC(=O)Nc1ccc(Cc2ccc(NC(C)=O)cc2)cc1 −0.1426

* * *

Give DTIO Corr train for every item shown.
- System: cancer cell lines, DetermaIO classes
- experiment description: Association of PRISM compound sensitivity with DetermaIO (DTIO) cell line classes
- Assay type: cell-based
- condition label: correlation of PRISM compound sensitivity with DTIO; training cell set
Square brackets hold non-standard residues; d marks the D form. Peptide text beside a SMILES is read from it. * marks the point of attachment. dPhe(4-NHCONH2) = NC(=O)Nc1ccc(C[C@@H](N)C(=O)O)cc1; Dihydroorotyl(S) = O=C1C[C@@H](C(=O)*)NC(=O)N1; dPhe(4-Cl) = N[C@H](Cc1ccc(Cl)cc1)C(=O)O; Phe(4-NH2) = Nc1ccc(C[C@H](N)C(=O)O)cc1; d2Nal = N[C@H](Cc1ccc2ccccc2c1)C(=O)O; Lys(iPr) = CC(C)NCCCC[C@H](N)C(=O)O; d3Pal = N[C@H](Cc1cccnc1)C(=O)O

For every record below, what is its DTIO Corr train?
1. CC(=O)N[C@H](Cc1ccc2ccccc2c1)C(=O)N[C@H](Cc1ccc(Cl)cc1)C(=O)N[C@H](Cc1cccnc1)C(=O)N[C@@H](CO)C(=O)N[C@@H](Cc1ccc(NC(=O)[C@@H]2CC(=O)NC(=O)N2)cc1)C(=O)N[C@H](Cc1ccc(NC(N)=O)cc1)C(=O)N[C@@H](CC(C)C)C(=O)N[C@@H](CCCCNC(C)C)C(=O)N1CCC[C@H]1C(=O)N[C@H](C)C(N)=O [degarelix] (Ac-[d2Nal][dPhe(4-Cl)][d3Pal]S[Phe(4-NH2)](Dihydroorotyl(S))[dPhe(4-NHCONH2)]L[Lys(iPr)]P[dA]-NH2)
2. COc1ccc(CN2C(=O)C(=O)c3cc(OC(F)(F)F)ccc32)cc1
3. CCCCC#Cc1nc(NC)c2ncn([C@@H]3O[C@H](CO)[C@@H](O)[C@H]3O)c2n1
4. C/C(=C\C(=O)Nc1ccccc1C(=O)O)c1ccc2ccccc2c1
5. c1ccc(C(NCc2cccnc2)(c2ccccc2)c2ccccc2)cc1
6. CCCCC1OC(=O)c2ccccc21 (stereo not shown) [butylphthalide]
7. O=C1C(=O)N(Cc2ccc(Cl)c(Cl)c2)c2ccccc21
8. O=C1/C(=C/c2ccccc2)C[C@@]2(O)[C@H]3Cc4ccc(O)c5c4[C@@]2(CCN3CC2CC2)[C@H]1O5

0.01996
−0.07773
−0.08651
−0.05255
−0.2006
0.01178
0.02708
−0.1416

* * *

- Test system: cancer cell lines classified IM, MSL, M
- experiment description: PRISM screen compound sensitivity correlated with IM, MSL and M subtype of cell lines (101 gene signature)
- Assay type: cell-based
- condition label: correlation of PRISM compound sensitivity with M subtype correlation; test cell set (188 cell lines)
Square brackets hold non-standard residues; d marks the D form. Peptide text beside a SMILES is read from it. * marks the point of attachment. dPhe(4-NHCONH2) = NC(=O)Nc1ccc(C[C@@H](N)C(=O)O)cc1; Dihydroorotyl(S) = O=C1C[C@@H](C(=O)*)NC(=O)N1; dPhe(4-Cl) = N[C@H](Cc1ccc(Cl)cc1)C(=O)O; Phe(4-NH2) = Nc1ccc(C[C@H](N)C(=O)O)cc1; d2Nal = N[C@H](Cc1ccc2ccccc2c1)C(=O)O; Lys(iPr) = CC(C)NCCCC[C@H](N)C(=O)O; d3Pal = N[C@H](Cc1cccnc1)C(=O)O
observed property: M Corr test
Numbers only.

- compound: "CCn1c(=O)[nH]c2cc(Cl)c(Cl)cc21 [DCEBIO]"
  experimental system: "cancer cell lines classified IM, MSL, M"
  M Corr test: "−0.1198"

Report M Corr test for each item below.
1. Nc1nc2c(nc(Br)n2[C@@H]2O[C@@H]3COP(=O)(O)O[C@H]3[C@H]2O)c(=O)[nH]1 [8-bromo-cGMP]
2. C[C@H](C(=O)O)c1ccc(-c2ccccc2)c(F)c1 [flurbiprofen-(S)-(+)]
3. CC1(S(=O)(=O)[O-])CC(=O)c2ccccc2C1=O.[Na+] (stereo not drawn) [menadione-bisulfite]
4. CN1C(=O)N(c2cc(Cl)cc(Cl)c2)C(=O)[C@]12CN(Cc1cc(C(=O)O)cs1)C[C@H]2c1ccc(C#N)cc1 [BMS-587101]

1. −0.06633
2. 0.01889
3. −0.2026
4. 0.1367

Please state M Corr test for every compound in the list that follows.
1. C=C(C)CN1CC[C@]23c4c5ccc(O)c4O[C@H]2c2[nH]c4ccccc4c2C[C@@]3(O)C1C5.Cl.O [SDM25N]
2. Cc1c(NC(=O)OC[C@@H]2COCCN2)cn2ncnc(Nc3ccc4c(cnn4Cc4cccc(F)c4)c3)c12 [BMS-599626]
3. COc1cc(-c2ccc(N=Nc3ccc4c(S(=O)(=O)[O-])cc(S(=O)(=O)[O-])c(N)c4c3O)c(OC)c2)ccc1N=Nc1ccc2c(S(=O)(=O)[O-])cc(S(=O)(=O)[O-])c(N)c2c1O.[Na+].[Na+].[Na+].[Na+] [chicago-sky-blue-6b]
4. c1ccc2sc(N3CCN(Cc4ccc5c(c4)OCO5)CC3)nc2c1
5. CCCCCOc1c(OC)ccc2cc(C(=O)NCc3ccc4c(c3)OCO4)c(=O)[nH]c12 [JTE-907]
6. CC(=O)N[C@H](Cc1ccc2ccccc2c1)C(=O)N[C@H](Cc1ccc(Cl)cc1)C(=O)N[C@H](Cc1cccnc1)C(=O)N[C@@H](CO)C(=O)N[C@@H](Cc1ccc(NC(=O)[C@@H]2CC(=O)NC(=O)N2)cc1)C(=O)N[C@H](Cc1ccc(NC(N)=O)cc1)C(=O)N[C@@H](CC(C)C)C(=O)N[C@@H](CCCCNC(C)C)C(=O)N1CCC[C@H]1C(=O)N[C@H](C)C(N)=O [degarelix] (Ac-[d2Nal][dPhe(4-Cl)][d3Pal]S[Phe(4-NH2)](Dihydroorotyl(S))[dPhe(4-NHCONH2)]L[Lys(iPr)]P[dA]-NH2)

1. 0.08807
2. 0.2776
3. 0.1599
4. −0.06017
5. 0.08725
6. −0.03554

# get_value(readout='M Corr test', item= C=C1CC[C@H](O)C/C1=C/C=C1\CCC[C@]2(C)[C@@H]([C@H](C)CC[C@@H](O)C(C)(C)O)CC[C@@H]12 [secalciferol] ) 0.07866

* * *

- Test system: cancer cell lines classified IM, MSL, M
- experiment description: PRISM screen compound sensitivity correlated with IM, MSL and M subtype of cell lines (101 gene signature)
- Assay type: cell-based
- condition label: correlation of PRISM compound sensitivity with MSL subtype correlation; test cell set (188 cell lines)
# binning rule on MSL Corr test: low interval = under -0.05, middle interval = from -0.05 up to 0.04, high interval = 0.04 and over

// below: answered compounds
- compound: "O=C(NCCCN1CCCCCC1)C(c1ccccc1)C1CCCCC1 (stereo not shown) [MR-16728]"
  assigned category: "high interval"
- compound: "Cc1occc(=O)c1[O-].Cc1occc(=O)c1[O-].[O]=[V+2] [bis(maltolato)oxo-vanadium(IV)]"
  assigned category: "middle interval"
- compound: "C[C@H]1Oc2cc(cnc2N)-c2c(nn(C)c2C#N)CN(C)C(=O)c2ccc(F)cc21 [PF-06463922]"
  assigned category: "low interval"
- compound: "C#Cc1cccc2c1c(C(=O)c1ccc(Cn3c(C)nc4cnccc43)c(F)c1)cn2C(=O)N(C)C [ABT-491]"
  assigned category: "middle interval"
- compound: "Cc1cc(OCCCS(C)(=O)=O)cc(C)c1-c1cccc(COc2ccc3c(c2)OC[C@H]3CC(=O)O)c1 [TAK-875]"
  assigned category: "middle interval"

Form: Item = CC(C)(O)CC(=O)NCCn1ccc2ncnc(Nc3ccc(Oc4cccc(C(F)(F)F)c4)c(Cl)c3)c21 [TAK-285] ; Class = ? high interval

State the band of C=C1CC[C@H](O)C/C1=C/C=C1\CCC[C@]2(C)[C@@H]([C@H](C)CC[C@@H](O)C(C)(C)O)CC[C@@H]12 [secalciferol] low interval

Consider CC(C)=CCC[C@](C)(O)[C@H]1CC[C@]2(C)[C@@H]1[C@H](O)C[C@@H]1[C@@]3(C)CC[C@H](O[C@@H]4O[C@H](CO)[C@@H](O)[C@H](O)[C@H]4O[C@@H]4O[C@H](CO)[C@@H](O)[C@H](O)[C@H]4O)C(C)(C)[C@@H]3CC[C@]12C [ginsenoside-rg3] . To which MSL Corr test class does it belong? middle interval

Which category fits this record: CCCCCCCC/C=C\CCCCCCCC(=O)NCCc1ccc(O)c(O)c1 [OLDA] low interval

Which class does CN1C(=O)N(c2cc(Cl)cc(Cl)c2)C(=O)[C@]12CN(Cc1cc(C(=O)O)cs1)C[C@H]2c1ccc(C#N)cc1 [BMS-587101] fall in? middle interval

Kindly state the category for this compound: Cc1ccc(-n2sc(=O)n(Cc3ccc(F)cc3)c2=O)cc1 [CCG-50014] low interval

Category of O=C(O)c1ccc(N2C(=O)/C(=C\c3ccc(-c4ccc([N+](=O)[O-])cc4)o3)C=C2c2ccccc2)cc1 [4E1RCat] , please. middle interval

Bin? C[C@]12CC[C@H]3[C@@H](CC[C@]4(O)C[C@@H](O)CC[C@]34C=O)[C@@]1(O)CC[C@@H]2C1=CC(=O)OC1 [k-strophanthidin] low interval

Which category does the recorded MSL Corr test put CC(C)(CCCCCCCCCCC(C)(C)CC(=O)O)CC(=O)O [medica-16] in? low interval

Determine which band this compound sits in: NC(=O)CCCCn1ccc(NC(N)=NCC(F)(F)F)n1 [ICI-162846] high interval

Note: place this compound into its band. Item: O=C(O)[C@H](O)[C@@H](O)[C@H](O[C@@H]1O[C@H](CO)[C@H](O)[C@H](O)[C@H]1O)[C@H](O)CO [maltobionic-acid] middle interval

Which band does CCN(CC)CCCCN1c2ccccc2Oc2ccc(Cl)cc21 [10-DEBC] fall in? middle interval

Would you mind sorting Cc1ccc(Sc2cncc3sc(C(N)=O)cc23)cc1 [A205804] into the appropriate category? high interval

Form field 'band' for O=C(NCc1ccccc1)c1csc(Nc2ccncn2)n1 [thiazovivin] low interval

Category lookup for the compound O=C(O)C1CN(CCCP(=O)(O)O)CCN1 (stereo not shown) [CPP] low interval

Entry c1cc2c(cc1C1CCCCC1)c1c3n2CCNC3CCC1 (stereo not shown) [tetrindole] belongs to which category? high interval

// return the class label for Cc1ccc(NC(=O)c2cccc(C(C)(C)C#N)c2)cc1Nc1ccc2ncn(C)c(=O)c2c1 [AZ-628] high interval

Into which bin does this compound go? Nc1nc(-c2ccc(Cl)c(Cl)c2)c(-c2ccncc2)s1 [CGH2466] high interval

Quick check: band for C[C@@H](N)c1ccc(C(=O)Nc2ccnc3[nH]ccc23)cc1 [Y-39983] low interval

Kindly state the category for this compound: COc1cc(C[C@@H]2NCCc3cc(O)c(O)cc32)cc(OC)c1OC [trimethoquinol] low interval

Form: Item = C[CH2][Hg][S]c1ccccc1C(=O)[O-].[Na+] [thiomersal] ; Class = ? low interval

Which band does Clc1ccc(C2(c3ccc(-c4cn[nH]c4)cc3)CCNCC2)cc1 [AT7867] fall in? low interval

Which class does COc1cccc(Nc2ncnn3ccc(CN4CC[C@@H](N)[C@H](O)C4)c23)c1 [BMS-690514] fall in? high interval
